This collection of values is drawn from patent US7998987B2.

# Ki per record follows
- TARGET_OF_ASSAY: c-Met (Homo sapiens)
- TEST: Ki determination for the inhibition of c-Met kinase activity (standard coupled enzyme system)
- Assay type: biochemical
- CONDITIONS_USED: coupled enzyme system, 200 μM ATP, 80 nM c-Met, 30° C.; read-out: c-Met Ki
VALUE_TYPE: Ki

> print(dat)
                                    compound       result
 1  N#Cc1ccc(OCc2nnc3ccc(Nc4cccc(Cl)c4)nn23)c(N)c1       > 2 µM
 2  Oc1ccc(NCc2nnc3ccc(Nc4cccc(Cl)c4)nn23)c2cccnc12       > 2 µM
 3  COc1cccc(Cc2nnc3ccc(Nc4cccc(Cl)c4)nn23)c1  0.1 to 2 µM
 4    COc1ccc(Cc2nnc3n2N=C(c2ccccc2)CS3)cc1F       > 2 µM
 5  Fc1ccc2[nH]cc(Cc3nnc4ccc(Nc5cccc(Cl)c5)nn34)c2c1       > 2 µM
 6  Oc1cccc(OCc2nnc3ccc(Nc4cccc(Cl)c4)nn23)c1  0.1 to 2 µM
 7  C[C@@H](Nc1ccc2nnc(Cc3ccc(O)cc3)n2n1)c1ccccc1  0.1 to 2 µM
 8  CC[C@@H](CO)Nc1ccc2nnc(Cc3ccc(O)cc3)n2n1  0.1 to 2 µM
 9  N#Cc1ccc(Cc2nnc3ccc(Nc4cccc(Cl)c4)nn23)cc1  0.1 to 2 µM
10  CS(=O)(=O)c1ccc(Cc2nnc3n2N=C(c2ccccc2)CS3)cc1       > 2 µM
11      Oc1ccc(Cc2nnc3ccc(NC4CCNCC4)nn23)cc1       > 2 µM
12  Oc1cccc(Cc2nnc3ccc(Nc4cccc(Cl)c4)nn23)c1  0.1 to 2 µM
13  Oc1ccc(Cc2nnc3n2N=C(c2ccc4c(c2)OCCO4)CS3)cc1     < 0.1 µM
14  Clc1cccc(Nc2ccc3nnc(CNc4ccc5c(c4)OCCO5)n3n2)c1       > 2 µM
15  C[C@@H](Nc1ccc2nnc(Cc3ccc(O)cc3)n2n1)C(C)(C)C  0.1 to 2 µM
16  CC(O)c1cccc(Nc2ccc3nnc(Cc4ccc(O)c(Cl)c4)n3n2)c1 (stereo not shown)  0.1 to 2 µM
17  Clc1cccc(Nc2ccc3nnc(CNc4ccc5[nH]ncc5c4)n3n2)c1  0.1 to 2 µM
18  Clc1cccc(Nc2ccc3nnc(CSc4ccccc4Cl)n3n2)c1       > 2 µM
19  CCn1nccc1Nc1ccc2nnc([C@@H](C)c3ccc(O)cc3)n2n1  0.1 to 2 µM
20  Oc1ccc(Cc2nnc3n2N=C(c2ccc4c(c2)OCO4)CS3)cc1     < 0.1 µM
21  Oc1ccc(Cc2nnc3ccc(Nc4cc(F)cc(F)c4)nn23)cc1F     < 0.1 µM
22  Oc1ccc(Cc2nnc3n2N=C(c2c[nH]c4ncccc24)CS3)cc1  0.1 to 2 µM
23      Oc1ccc(Cc2nnc3ccc(NC4CCOCC4)nn23)cc1  0.1 to 2 µM
24  Fc1cccc(OCc2nnc3ccc(Nc4cccc(Cl)c4)nn23)c1       > 2 µM
25  CC(C)C(=O)N1CCC(Nc2ccc3nnc(Cc4ccc(O)cc4)n3n2)CC1  0.1 to 2 µM
26  c1csc(C2=Nn3c(Cc4ccc5c(c4)OCO5)nnc3SC2)c1     < 0.1 µM
27  NC(=O)c1ccc(NCc2nnc3ccc(Nc4cccc(Cl)c4)nn23)nc1       > 2 µM
28  C[C@@H](c1ccc(O)cc1)c1nnc2ccc(Sc3ncc[nH]3)nn12       > 2 µM
29  CC(=O)Nc1cccc(OCc2nnc3ccc(Nc4cccc(Cl)c4)nn23)c1  0.1 to 2 µM
30  Clc1cccc(Nc2ccc3nnc(COc4c[nH]c5ccccc45)n3n2)c1       > 2 µM
31  Fc1ccc(NCc2nnc3ccc(Nc4cccc(Cl)c4)nn23)cc1F       > 2 µM
32  COc1ccc(Cc2nnc3ccc(Nc4cc(C)cc(C)c4)nn23)cc1  0.1 to 2 µM
33  Clc1cccc(Nc2ccc3nnc(Cc4noc5ccccc45)n3n2)c1       > 2 µM
34  CCc1cccc(Nc2ccc3nnc(Cc4ccc(O)c(F)c4)n3n2)c1  0.1 to 2 µM
35  Clc1cccc(Nc2ccc3nnc(CNc4n[nH]c5ncccc45)n3n2)c1     < 0.1 µM
36  Fc1ccc(Cc2nnc3ccc(Nc4cccc(Cl)c4)nn23)cc1     < 0.1 µM
37  O=C(Nc1ccc2nnc(Cc3ccc(O)cc3)n2n1)c1ccccc1       > 2 µM

====

- TARGET_OF_ASSAY: c-Met (Homo sapiens)
- TEST: Ki determination for the inhibition of c-Met kinase activity (standard coupled enzyme system)
- Assay type: biochemical
- CONDITIONS_USED: coupled enzyme system, 200 μM ATP, 10 μM polyGluTyr, 80 nM c-Met, 30° C.; read-out: c-Met Ki
# Ki per record follows
VALUE_TYPE: Ki

> print(dat)
                                    molecule          result
 1          Oc1ccc(Cc2nnc3sc(NC4CC4)nn23)cc1       > 2000 nM
 2   Oc1ccc(Cc2nnc3sc(Nc4ccccc4Cl)nn23)cc1Cl  100 to 2000 nM
 3  CC(c1ccc(O)cc1)c1nnc2sc(Nc3cccc(F)c3)nn12 (stereo not shown)        < 100 nM
 4  CC(c1ccc(O)cc1)c1nnc2sc(Nc3cc(F)cc(F)c3)nn12 (stereo not shown)        < 100 nM
 5   Fc1cc(F)cc(Nc2ccc3nnc(Cc4ccncc4)n3n2)c1  100 to 2000 nM
 6  C[C@H](c1ccc(O)cc1)c1nnc2sc(Nc3ccc(Cl)cc3)nn12  100 to 2000 nM
 7  CCN1CCCC1CNc1ccc2nnc(Cc3ccc(O)cc3)n2n1 (stereo not shown)       > 2000 nM
 8         CC(C)Nc1ccc2nnc(Cc3ccc(O)cc3)n2n1  100 to 2000 nM
 9  FC(F)(F)c1cccc(Nc2nn3c(Cn4ccc5ncccc54)nnc3s2)c1        < 100 nM
10  Cc1cccc(Nc2nn3c(Cn4ccc5ncccc54)nnc3s2)c1  100 to 2000 nM
11  Oc1ccc(Cc2nnc3sc(Nc4cccc(F)c4F)nn23)cc1F  100 to 2000 nM
12      COc1ccc(Cc2nnc3sc(Cc4ccccc4)nn23)cc1       > 2000 nM
13  C[C@@H](c1ccc(O)c(C(C)(C)C)c1)c1nnc2sc(Nc3cccc(F)c3)nn12  100 to 2000 nM
14  Cc1cccc(Nc2ccc3nnc(Cc4ccc(O)c(Cl)c4)n3n2)c1  100 to 2000 nM
15       CCC(CC)Nc1ccc2nnc(Cc3ccc(O)cc3)n2n1  100 to 2000 nM
16     Clc1cccc(Nc2ccc3nnc(Cc4ccncc4)n3n2)c1  100 to 2000 nM
17  C[C@H](c1ccc(O)cc1)c1nnc2sc(Nc3cccc(F)c3)nn12        < 100 nM
18  Cc1cccc(Nc2ccc3nnc(Cc4ccc5c(c4)OCO5)n3n2)c1  100 to 2000 nM
19   Oc1ccc(CCc2nnc3sc(Nc4cccc(F)c4)nn23)cc1       > 2000 nM

====

- TARGET_OF_ASSAY: c-Met (Homo sapiens, UniProt P08581)
- Sequence (P08581 25-1390): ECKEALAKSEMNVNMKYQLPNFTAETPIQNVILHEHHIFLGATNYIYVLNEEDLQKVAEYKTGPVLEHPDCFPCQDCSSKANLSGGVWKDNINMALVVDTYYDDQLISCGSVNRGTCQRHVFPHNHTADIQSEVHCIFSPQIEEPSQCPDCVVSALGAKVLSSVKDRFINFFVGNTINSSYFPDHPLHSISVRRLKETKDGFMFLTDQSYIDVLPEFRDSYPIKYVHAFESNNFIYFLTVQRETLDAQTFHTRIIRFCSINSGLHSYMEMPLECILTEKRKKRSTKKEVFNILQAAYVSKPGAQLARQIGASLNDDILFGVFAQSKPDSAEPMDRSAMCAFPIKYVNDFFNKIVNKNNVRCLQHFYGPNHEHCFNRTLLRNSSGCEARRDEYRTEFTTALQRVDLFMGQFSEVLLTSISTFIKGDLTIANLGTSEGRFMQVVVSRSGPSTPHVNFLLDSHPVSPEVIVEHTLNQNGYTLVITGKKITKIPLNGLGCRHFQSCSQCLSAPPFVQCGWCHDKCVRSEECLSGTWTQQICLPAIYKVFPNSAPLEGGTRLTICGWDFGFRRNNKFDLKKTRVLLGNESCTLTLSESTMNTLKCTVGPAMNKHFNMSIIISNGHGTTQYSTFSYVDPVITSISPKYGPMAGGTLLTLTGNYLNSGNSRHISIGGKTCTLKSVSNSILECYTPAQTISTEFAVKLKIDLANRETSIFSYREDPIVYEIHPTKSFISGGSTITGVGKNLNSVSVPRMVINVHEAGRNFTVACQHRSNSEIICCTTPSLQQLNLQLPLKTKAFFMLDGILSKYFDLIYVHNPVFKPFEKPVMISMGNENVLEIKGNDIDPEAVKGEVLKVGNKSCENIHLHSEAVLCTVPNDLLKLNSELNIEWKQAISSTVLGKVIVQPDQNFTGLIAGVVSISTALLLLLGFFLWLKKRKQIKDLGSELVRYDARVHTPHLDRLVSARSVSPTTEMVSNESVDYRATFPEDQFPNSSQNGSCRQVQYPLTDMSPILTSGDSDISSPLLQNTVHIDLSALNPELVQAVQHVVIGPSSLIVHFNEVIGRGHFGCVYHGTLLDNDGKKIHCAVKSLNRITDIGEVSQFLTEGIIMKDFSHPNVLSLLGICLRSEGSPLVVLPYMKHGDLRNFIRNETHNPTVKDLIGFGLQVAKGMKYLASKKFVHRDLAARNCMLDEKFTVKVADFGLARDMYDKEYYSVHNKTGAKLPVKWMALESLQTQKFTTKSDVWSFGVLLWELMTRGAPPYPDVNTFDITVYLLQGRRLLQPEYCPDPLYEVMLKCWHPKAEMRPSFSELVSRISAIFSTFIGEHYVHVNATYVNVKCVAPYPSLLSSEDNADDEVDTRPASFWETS
- TEST: Ki determination for the inhibition of c-Met kinase activity (standard coupled enzyme system)
- Type: biochemical
- CONDITIONS_USED: coupled enzyme system, 200 μM ATP, 80 nM c-Met, 30° C.; read-out: c-Met Ki
pKi: −log10 of the molar value.
# pKi per record follows
VALUE_TYPE: pKi

> print(dat)
                                    compound  value.type        result
 1  Cc1cccc(SCc2nnc3ccc(Nc4cccc(Cl)c4)nn23)c1         pKi        < 5.70
 2  Clc1cccc(Nc2ccc3nnc(COc4ccc(Cl)nc4)n3n2)c1         pKi        < 5.70
 3  Clc1cccc(Nc2ccc3nnc(CCc4c[nH]cn4)n3n2)c1         pKi        < 5.70
 4  Oc1ccc(Cc2nnc3ccc(Nc4nc5ccc(Cl)cc5s4)nn23)cc1         pKi  5.70 to 7.00
 5  COc1ccc(Cc2nnc3ccc(Nc4cccc(Cl)c4)nn23)cc1Br         pKi  5.70 to 7.00
 6  O=[N+]([O-])c1ccc(Cc2nnc3ccc(Nc4cccc(Cl)c4)nn23)cc1         pKi        < 5.70
 7  CC(Cn1cnc2ccccc21)c1nnc2ccc(Nc3cccc(Cl)c3)nn12 (stereo not drawn)         pKi        < 5.70
 8  CC1CC(Nc2ccc3nnc(Cc4ccc(O)cc4)n3n2)CC(C)(C)C1 (stereo not drawn)         pKi        > 7.00
 9  CC(C)C(=O)N1CCCC(Nc2ccc3nnc(Cc4ccc(O)cc4)n3n2)C1 (stereo not drawn)         pKi        < 5.70
10  CS(=O)(=O)Nc1ccc(Cc2nnc3ccc(Nc4cccc(Cl)c4)nn23)cc1         pKi        < 5.70
11  COc1cccc(Nc2ccc3nnc(Cc4ccc(O)c(F)c4)n3n2)c1         pKi  5.70 to 7.00
12  Cc1ccc(OCc2nnc3ccc(Nc4cccc(Cl)c4)nn23)cn1         pKi        < 5.70
13  CS(=O)(=O)Nc1cccc(Cc2nnc3n2N=C(c2ccccc2)CS3)c1         pKi        < 5.70
14  Cc1nc2cc(OCc3nnc4ccc(Nc5cccc(Cl)c5)nn34)ccc2s1         pKi        < 5.70
15  C[C@@H](c1ccc(O)cc1)c1nnc2ccc(Nc3nc4ccccc4s3)nn12         pKi  5.70 to 7.00
16  CCOc1cccc(NCc2nnc3ccc(Nc4cccc(Cl)c4)nn23)c1         pKi        < 5.70
17  COc1ccc(NCc2nnc3ccc(Nc4cccc(Cl)c4)nn23)cc1O         pKi        < 5.70
18  Clc1cccc(Nc2ccc3nnc(Cn4ccc5ncccc54)n3n2)c1         pKi        > 7.00
19  Clc1cccc(Nc2ccc3nnc(Cn4cnc5ccccc54)n3n2)c1         pKi        < 5.70
20  O=c1[nH]ccc2c1ccn2Cc1nnc2ccc(Nc3cccc(Cl)c3)nn12         pKi        > 7.00
21  CC(=O)c1cn(Cc2nnc3ccc(Nc4cccc(Cl)c4)nn23)c2ncccc12         pKi        < 5.70
22  Oc1ccc(Cc2nnc3ccc(Nc4cc(Cl)ccc4F)nn23)cc1         pKi        > 7.00
23  CCOC(=O)c1sc(Nc2ccc3nnc([C@@H](C)c4ccc(O)cc4)n3n2)nc1C         pKi  5.70 to 7.00
24  C=CCc1ccccc1OCc1nnc2ccc(Nc3cccc(Cl)c3)nn12         pKi        < 5.70
25  Clc1cccc(Nc2ccc3nnc(Cc4ccc(Cl)nc4)n3n2)c1         pKi  5.70 to 7.00
26  NC(=O)c1ncccc1OCc1nnc2ccc(Nc3cccc(Cl)c3)nn12         pKi        < 5.70
27  O=[N+]([O-])c1ncccc1OCc1nnc2ccc(Nc3cccc(Cl)c3)nn12         pKi        < 5.70
28   Nc1ncccc1OCc1nnc2ccc(Nc3cccc(Cl)c3)nn12         pKi        > 7.00
29      COc1ccc(Cc2nnc3n2N=C(c2cccs2)CS3)cc1         pKi  5.70 to 7.00
30  COCCC(=O)N[C@H]1CCCC[C@@H]1Nc1ccc2nnc([C@@H](C)c3ccc(O)cc3)n2n1         pKi        < 5.70
31  Oc1cccc(CCc2nnc3ccc(Nc4cccc(Cl)c4)nn23)c1         pKi        < 5.70
32        c1csc(C2=Nn3c(Cc4ccncc4)nnc3SC2)c1         pKi        < 5.70
33  CS(=O)(=O)c1ccc(Cc2nnc3ccc(Nc4cccc(Cl)c4)nn23)cc1         pKi        < 5.70
34  Clc1cccc(Nc2ccc3nnc(CNc4ccc5cc[nH]c5c4)n3n2)c1         pKi        < 5.70
35  c1ccc(C2=Nn3c(Cc4ccc5c(c4)OCO5)nnc3SC2)cc1         pKi  5.70 to 7.00
36  COc1ccc(Cl)cc1Nc1ccc2nnc(Cc3ccc(O)cc3)n2n1         pKi        > 7.00
